assaySystem: CB2 receptor (Homo sapiens)
Sequence (P34972 whole entry): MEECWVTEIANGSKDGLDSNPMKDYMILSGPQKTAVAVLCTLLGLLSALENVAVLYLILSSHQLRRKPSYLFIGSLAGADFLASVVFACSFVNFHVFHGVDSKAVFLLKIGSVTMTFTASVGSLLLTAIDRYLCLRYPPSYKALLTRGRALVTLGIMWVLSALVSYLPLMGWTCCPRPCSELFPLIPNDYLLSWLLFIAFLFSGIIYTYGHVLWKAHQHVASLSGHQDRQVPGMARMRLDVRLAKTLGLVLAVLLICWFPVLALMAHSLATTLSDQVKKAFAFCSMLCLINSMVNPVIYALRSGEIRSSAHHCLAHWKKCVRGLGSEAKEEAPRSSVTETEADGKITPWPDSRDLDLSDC
testDetails: [3H]CP-55,940 radioligand competition binding, CB2
Parameters: host or cells: cell membrane preparations
experimentalParameters: Ki(CB1)/Ki(CB2) ratio
A collection of molecules and their measured SI: selectivity index for CB2
recordedMetric: SI: selectivity index for CB2

recordsmiles=CCN(CC)c1ccc(CN(c2ccc(C)cc2)S(=O)(=O)c2ccc(F)cc2)cc1 reportedvalue=153
recordsmiles=CCN(CC)c1ccc(CN(C(=O)Cc2ccc(Cl)cc2)c2ccc(C)cc2)cc1 reportedvalue=29
recordsmiles=CCN(CC)c1ccc(CN(c2ccc(Cl)cc2)S(=O)(=O)c2ccc(C)cc2)cc1 reportedvalue=3.7
recordsmiles=Cc1ccc(C(NC(=O)Cc2ccc(Cl)cc2)NC(=O)Cc2ccc(Cl)cc2)cc1 reportedvalue=>43

---

# Ki values compiled below
assaySystem: CB2 receptor (Homo sapiens)
testDetails: [3H]CP-55,940 radioligand competition binding, CB2
Set-up: host or cells: cell membrane preparations
experimentalParameters: [3H]CP-55,940 displacement; read-out: Ki (CB2)
recordedMetric: Ki (nM)

compound="O=C(Cc1ccc(Cl)cc1)NC(NC(=O)Cc1ccc(Cl)cc1)c1ccc(C(F)(F)F)cc1 [Compound 28]" assaysystem="CB2 receptor (Homo sapiens)" recordedmetric=Ki relationsign== reportedvalue=101
compound="O=C(Cc1ccccc1)NC(NC(=O)Cc1ccccc1)c1ccc(C(F)(F)F)cc1 [Compound 14]" assaysystem="CB2 receptor (Homo sapiens)" recordedmetric=Ki relationsign== reportedvalue=596
compound="CCN(CC)c1ccc(CN(c2ccc(C)cc2)S(=O)(=O)c2ccc(F)cc2)cc1 [Compound 91]" assaysystem="CB2 receptor (Homo sapiens)" recordedmetric=Ki relationsign== reportedvalue=5.6
compound="CN(C)c1ccc(C(NC(=O)Cc2ccccc2)NC(=O)Cc2ccccc2)cc1 [Compound 1]" assaysystem="CB2 receptor (Homo sapiens)" recordedmetric=Ki relationsign== reportedvalue=777
compound="CCN(CC)c1ccc(CNc2ccc(Cl)cc2)cc1 [G]" assaysystem="CB2 receptor (Homo sapiens)" recordedmetric=Ki relationsign== reportedvalue=6740
compound="CCN(CC)c1ccc(CN(c2ccc(C)cc2)S(=O)(=O)c2ccc(C)cc2)cc1 [Compound 94]" assaysystem="CB2 receptor (Homo sapiens)" recordedmetric=Ki relationsign== reportedvalue=5.4
compound="O=C(Cc1ccc(C(F)(F)F)cc1)NC(NC(=O)Cc1ccc(C(F)(F)F)cc1)c1ccccc1 [Compound 30]" assaysystem="CB2 receptor (Homo sapiens)" recordedmetric=Ki relationsign=> reportedvalue=20000
compound="CCN(CC)c1ccc(CN(C(=O)C2CCCCC2)c2ccc(C)cc2)cc1 [Compound 99]" assaysystem="CB2 receptor (Homo sapiens)" recordedmetric=Ki relationsign== reportedvalue=222
compound="O=C(Cc1ccc(Cl)cc1)NC(NC(=O)Cc1ccc(Cl)cc1)c1ccc(Cl)cc1 [Compound 24]" assaysystem="CB2 receptor (Homo sapiens)" recordedmetric=Ki relationsign== reportedvalue=154
compound="O=C(Cc1ccccc1)NC(Cc1ccccc1)NC(=O)Cc1ccccc1 [Compound 37]" assaysystem="CB2 receptor (Homo sapiens)" recordedmetric=Ki relationsign=> reportedvalue=20000
compound="CCN(CC)c1ccc(CN(c2ccc(C)cc2)S(=O)(=O)c2ccc(OC)cc2)cc1 [Compound 93]" assaysystem="CB2 receptor (Homo sapiens)" recordedmetric=Ki relationsign== reportedvalue=0.5
compound="CCN(CC)c1ccc(CN(c2ccc(Cl)cc2)S(=O)(=O)c2ccc(F)cc2)cc1 [Compound 82]" assaysystem="CB2 receptor (Homo sapiens)" recordedmetric=Ki relationsign== reportedvalue=73
compound="O=C(Cc1ccc(Cl)cc1)NC(NC(=O)Cc1ccc(Cl)cc1)c1ccccc1C(F)(F)F [Compound 27]" assaysystem="CB2 receptor (Homo sapiens)" recordedmetric=Ki relationsign== reportedvalue=158
compound="CCCCCCCN(Cc1ccc(N(CC)CC)cc1)S(=O)(=O)c1ccc(OC(C)C)cc1 [Compound 71]" assaysystem="CB2 receptor (Homo sapiens)" recordedmetric=Ki relationsign=> reportedvalue=20000
compound="O=C(Cc1ccccc1)NC(CCc1ccccc1)NC(=O)Cc1ccccc1 [Compound 45]" assaysystem="CB2 receptor (Homo sapiens)" recordedmetric=Ki relationsign== reportedvalue=9320
compound="CCCCCCCN(Cc1ccc(N(CC)CC)cc1)C(=O)Cc1ccc(Cl)cc1 [Compound 77]" assaysystem="CB2 receptor (Homo sapiens)" recordedmetric=Ki relationsign== reportedvalue=696
compound="O=C(Cc1ccc(Cl)cc1)NC(NC(=O)Cc1ccc(Cl)cc1)c1ccc([N+](=O)[O-])cc1 [Compound 29]" assaysystem="CB2 receptor (Homo sapiens)" recordedmetric=Ki relationsign=> reportedvalue=20000

---

assaySystem: CB1 receptor (Homo sapiens, UniProt P21554)
Construct: host or cells: cell membrane preparations
Sequence (P21554 whole entry): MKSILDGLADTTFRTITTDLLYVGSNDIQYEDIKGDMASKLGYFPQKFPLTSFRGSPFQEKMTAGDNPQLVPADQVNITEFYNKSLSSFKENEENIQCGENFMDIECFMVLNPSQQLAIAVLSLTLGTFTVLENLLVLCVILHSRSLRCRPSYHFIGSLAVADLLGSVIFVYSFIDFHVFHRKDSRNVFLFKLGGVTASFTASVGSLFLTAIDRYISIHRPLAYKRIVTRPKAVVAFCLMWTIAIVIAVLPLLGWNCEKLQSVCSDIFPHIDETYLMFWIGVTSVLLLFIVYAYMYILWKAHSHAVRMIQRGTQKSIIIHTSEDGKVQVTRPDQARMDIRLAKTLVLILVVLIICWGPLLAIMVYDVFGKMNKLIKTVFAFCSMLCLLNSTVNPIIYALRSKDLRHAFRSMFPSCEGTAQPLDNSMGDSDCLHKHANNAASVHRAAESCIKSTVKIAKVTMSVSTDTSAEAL
testDetails: [3H]CP-55,940 radioligand competition binding, CB1
recordedMetric: Ki (µM)

recordsmiles=CCN(CC)c1ccc(CN(C23CC4CC(CC(C4)C2)C3)S(=O)(=O)c2ccccc2)cc1 assaysystem="CB1 receptor (Homo sapiens, UniProt P21554)" recordedmetric=Ki unitstring=µM reportedvalue=11

---

assaySystem: CB1 receptor (Homo sapiens, UniProt P21554)
Construct: host or cells: cell membrane preparations
testDetails: [3H]CP-55,940 radioligand competition binding, CB1
experimentalParameters: [3H]CP-55,940 displacement; read-out: Ki (CB1)
pKi: −log10 of the molar value.
Reported values of pKi for individual entries
recordedMetric: pKi

recordsmiles=CCN(CC)c1ccc(CN(C(=O)Cc2ccccc2)C23CC4CC(CC(C4)C2)C3)cc1 recordedmetric=pKi relationsign=< reportedvalue=4.70
recordsmiles=CCN(CC)c1ccc(CN(c2ccc(C)cc2)S(=O)(=O)c2ccc(C(C)C)cc2)cc1 recordedmetric=pKi relationsign== reportedvalue=5.47
recordsmiles=CCN(CC)c1ccc(CN(c2ccc(C)cc2)S(=O)(=O)c2ccc(F)cc2)cc1 recordedmetric=pKi relationsign== reportedvalue=6.07
recordsmiles=CCN(CC)c1ccc(CN(c2ccc(C)cc2)S(=O)(=O)c2ccccc2)cc1 recordedmetric=pKi relationsign== reportedvalue=6.29
recordsmiles=CCN(CC)c1ccc(C(NC(=O)C(C)(C)C)NC(=O)C(C)(C)C)cc1 recordedmetric=pKi relationsign=< reportedvalue=4.70
recordsmiles=O=C(Cc1ccccc1)NC(/C=C/c1ccccc1)NC(=O)Cc1ccccc1 recordedmetric=pKi relationsign=< reportedvalue=4.70
recordsmiles=CCN(CC)c1ccc(CN(C(=O)Cc2ccc(Cl)cc2)c2ccc(C)cc2)cc1 recordedmetric=pKi relationsign== reportedvalue=5.49
recordsmiles=CCN(CC)c1ccc(CN(c2ccc(Cl)cc2)S(=O)(=O)c2ccc(C)cc2)cc1 recordedmetric=pKi relationsign== reportedvalue=6.86
recordsmiles=O=C(Cc1ccccc1)NC(Cc1ccccc1)NC(=O)Cc1ccccc1 recordedmetric=pKi relationsign=< reportedvalue=4.70
recordsmiles=CCN(CC)c1ccc(CN(C23CC4CC(CC(C4)C2)C3)S(=O)(=O)c2cccc(C)c2)cc1 recordedmetric=pKi relationsign== reportedvalue=5.08
recordsmiles=CCN(CC)c1ccc(CN(C(=O)Cc2ccc(Cl)cc2)c2ccc(Cl)cc2)cc1 recordedmetric=pKi relationsign=< reportedvalue=4.70
recordsmiles=CCN(CC)c1ccc(CN(C23CC4CC(CC(C4)C2)C3)S(=O)(=O)c2ccc(Cl)cc2)cc1 recordedmetric=pKi relationsign== reportedvalue=5.69
recordsmiles=CCN(CC)c1ccc(C(NC(=O)C(C)C)NC(=O)C(C)C)cc1 recordedmetric=pKi relationsign=< reportedvalue=4.70
recordsmiles=CCN(CC)c1ccc(CN(C(=O)C2CCCCC2)c2ccc(Cl)cc2)cc1 recordedmetric=pKi relationsign=< reportedvalue=4.70
recordsmiles=CCN(CC)c1ccc(CN(c2ccc(Cl)cc2)S(=O)(=O)c2ccc(F)cc2)cc1 recordedmetric=pKi relationsign== reportedvalue=5.95
recordsmiles=CCN(CC)c1ccc(CN(c2ccc(Cl)cc2)S(=O)(=O)c2ccc(Cl)cc2)cc1 recordedmetric=pKi relationsign== reportedvalue=5.18
recordsmiles=CCN(CC)c1ccc(CN(C(=O)Cc2ccccc2)c2ccc(C)cc2)cc1 recordedmetric=pKi relationsign=< reportedvalue=4.70

---

Below, each of the molecules is paired with its reported pKi value.
assaySystem: CB2 receptor (Homo sapiens)
testDetails: [3H]CP-55,940 radioligand competition binding, CB2
Set-up: host or cells: cell membrane preparations
experimentalParameters: [3H]CP-55,940 displacement; read-out: Ki (CB2)
pKi: −log10 of the molar value.
recordedMetric: pKi

molecule=CCN(CC)c1ccc(CN(c2ccc(C)cc2)S(=O)(=O)c2ccc(C(C)C)cc2)cc1 relationsign== reportedvalue=8.37
molecule=CCN(CC)c1ccc(CN(C(=O)Cc2ccccc2)c2ccc(C)cc2)cc1 relationsign== reportedvalue=7.14
molecule=O=C(Cc1ccccc1)NC(NC(=O)Cc1ccccc1)c1ccccc1F relationsign== reportedvalue=4.45
molecule=CCN(CC)c1ccc(CN(C23CC4CC(CC(C4)C2)C3)S(=O)(=O)c2ccc(Cl)cc2)cc1 relationsign== reportedvalue=6.76
molecule=CCN(CC)c1ccc(C(NC(=O)c2ccccc2)NC(=O)c2ccccc2)cc1 relationsign== reportedvalue=6.16
molecule=CCCCCCCN(Cc1ccc(N(CC)CC)cc1)S(=O)(=O)c1ccc(OC)cc1 relationsign== reportedvalue=5.28
molecule=CCN(CC)c1ccc(CN(c2ccc(C)cc2)S(=O)(=O)c2ccc(Cl)cc2)cc1 relationsign== reportedvalue=8.52
molecule=Cc1ccc(C(NC(=O)Cc2ccccc2)NC(=O)Cc2ccccc2)cc1 relationsign== reportedvalue=6.31
molecule=CCCCCCCN(Cc1ccc(N(CC)CC)cc1)S(=O)(=O)Cc1ccccc1 relationsign== reportedvalue=6.56
molecule=CCCCCCCC(=O)N(CCCCCCC)Cc1ccc(N(CC)CC)cc1 relationsign=< reportedvalue=4.70
molecule=CCN(CC)c1ccc(CN(c2ccc(Cl)cc2)S(=O)(=O)c2ccc(C(C)C)cc2)cc1 relationsign== reportedvalue=6.65
molecule=O=C(Cc1ccc(Cl)cc1)NC(NC(=O)Cc1ccc(Cl)cc1)c1ccccc1 relationsign=< reportedvalue=4.70
molecule="CCN(CC)c1ccc(C(NC(=O)C=Cc2ccccc2)NC(=O)C=Cc2ccccc2)cc1 (stereo not drawn)" relationsign== reportedvalue=6.78
molecule=O=C(Cc1ccccc1)NC(NC(=O)Cc1ccccc1)c1ccc(F)cc1 relationsign== reportedvalue=4.96
molecule=CCN(CC)c1ccc(CN(C(=O)Cc2ccc(Cl)cc2)c2ccc(Cl)cc2)cc1 relationsign== reportedvalue=6.87
molecule=CCN(CC)c1ccc(CN(C(=O)Cc2ccc(Cl)cc2)c2ccc(C)cc2)cc1 relationsign== reportedvalue=6.97
molecule=O=C(Cc1ccccc1)NC(NC(=O)Cc1ccccc1)c1cccc(F)c1 relationsign== reportedvalue=4.90
molecule=O=C(Cc1ccccc1)NC(NC(=O)Cc1ccccc1)c1ccccc1C(F)(F)F relationsign== reportedvalue=4.93
molecule=CCCCCCCN(Cc1ccc(N(CC)CC)cc1)C(=O)Cc1ccccc1 relationsign== reportedvalue=5.88
molecule=CCCCCCCN(Cc1ccc(N(CC)CC)cc1)S(=O)(=O)c1ccc(Cl)cc1 relationsign== reportedvalue=5.17
molecule=O=C(Cc1ccccc1)NC(NC(=O)Cc1ccccc1)c1ccc([N+](=O)[O-])cc1 relationsign=< reportedvalue=4.70
molecule=CCCCCCCN(Cc1ccc(N(CC)CC)cc1)S(=O)(=O)c1ccc(C(C)C)cc1 relationsign== reportedvalue=4.89
molecule=O=C(Cc1ccc(Cl)cc1)NC(NC(=O)Cc1ccc(Cl)cc1)c1ccc(F)cc1 relationsign=< reportedvalue=4.70
molecule=CCCCCCCN(Cc1ccc(N(CC)CC)cc1)C(=O)c1ccc(N(C)C)cc1 relationsign== reportedvalue=5.89
molecule=CCCCCCCN(Cc1ccc(N(CC)CC)cc1)S(=O)(=O)c1ccc(F)cc1 relationsign== reportedvalue=5.96
molecule=O=C(Cc1ccc(C(F)(F)F)cc1)NC(NC(=O)Cc1ccc(C(F)(F)F)cc1)c1ccc(F)cc1 relationsign=< reportedvalue=4.70
molecule=CCCCN(CCCC)c1ccc(C(NC(=O)Cc2ccccc2)NC(=O)Cc2ccccc2)cc1 relationsign== reportedvalue=6.66
molecule=O=C(Cc1ccccc1)NC(NC(=O)Cc1ccccc1)c1ccc(N2CCCCC2)cc1 relationsign== reportedvalue=6.23
molecule=CCCCCCCN(Cc1ccc(N(CC)CC)cc1)S(=O)(=O)c1cccc(C)c1 relationsign== reportedvalue=5.64
molecule=COc1ccc(C(NC(=O)Cc2ccccc2)NC(=O)Cc2ccccc2)cc1 relationsign== reportedvalue=6.11
molecule=CCCCCCCN(Cc1ccc(N(CC)CC)cc1)C(=O)C1CCCCC1 relationsign== reportedvalue=6.67
molecule=CCN(CC)c1ccc(CN(c2ccc(C)cc2)S(=O)(=O)c2ccccc2)cc1 relationsign== reportedvalue=8.47
molecule=CCN(CC)c1ccc(CNC23CC4CC(CC(C4)C2)C3)cc1 relationsign== reportedvalue=4.70
